- experiment: Secretion counterscreen for inhibitors of the SERCaMP assay screened against the NCATS CANVASS Library (AID 1347390);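 further: light from luciferase secreted into medium read as a measure of general secretion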
- experimental.conditions: SH-SY5Y constitutive GLuc secretion, luminescence, 20 h; series mostly up to 76.6 µM
Records with an inconclusive call do not appear. Activity calls are given as the source filed them. The call rests on the fitted dose curve; in most records, active means well fitted inhibition curve with a large enough effect; inconclusive means small, poorly fitted or top-dose-only effect; inactive means no such curve, though single readings can be large or run the other way.
Please answer using one outcome listed in 1 = active, 0 = inactive

Request: Give the logged outcome of this assay for the following compound: "CC(=O)O[C@@H]1C=C2C(=O)OC[C@]2(O)[C@@]2(C)CCCC(C)(C)[C@H]12"
Response: 1

Request: So what was the verdict on "C[C@@H]1C(=O)[C@]23CC[C@H]1C[C@]21O[C@H]2C(C)(C)C=CC(=O)[C@]23COC1=O" in this test?
Response: 0

Request: Please share the test call associated with "COc1cc(O)c2c3c(c(O)cc(C)c13)C(=O)OC2" .
Response: 0

Request: Lab log entry: "O=Cc1ccc2n1C[C@@]1(C[C@H](O)[C@@H](CO)O1)OC2" — outcome as called in the assay?
Response: 0

Request: What was the test verdict on COc1ccc([C@@H]2c3cc(OC)c(OC)cc3C(=O)C(C)C2C)cc1OC (stereo not given in full) ?
Response: 0
